Where do the numbers come from? From patent US12281122B1.

biological target: PI3Kα H1047R (Homo sapiens, UniProt P42336, H1047R); assay: PI3Kα H1047R enzyme assay (Transcreener ADP2 TR-FRET Red Assay); conditions: purified recombinant full-length protein; 2 hours pre-incubation with compound
Sequence (P42336 whole entry H1047R): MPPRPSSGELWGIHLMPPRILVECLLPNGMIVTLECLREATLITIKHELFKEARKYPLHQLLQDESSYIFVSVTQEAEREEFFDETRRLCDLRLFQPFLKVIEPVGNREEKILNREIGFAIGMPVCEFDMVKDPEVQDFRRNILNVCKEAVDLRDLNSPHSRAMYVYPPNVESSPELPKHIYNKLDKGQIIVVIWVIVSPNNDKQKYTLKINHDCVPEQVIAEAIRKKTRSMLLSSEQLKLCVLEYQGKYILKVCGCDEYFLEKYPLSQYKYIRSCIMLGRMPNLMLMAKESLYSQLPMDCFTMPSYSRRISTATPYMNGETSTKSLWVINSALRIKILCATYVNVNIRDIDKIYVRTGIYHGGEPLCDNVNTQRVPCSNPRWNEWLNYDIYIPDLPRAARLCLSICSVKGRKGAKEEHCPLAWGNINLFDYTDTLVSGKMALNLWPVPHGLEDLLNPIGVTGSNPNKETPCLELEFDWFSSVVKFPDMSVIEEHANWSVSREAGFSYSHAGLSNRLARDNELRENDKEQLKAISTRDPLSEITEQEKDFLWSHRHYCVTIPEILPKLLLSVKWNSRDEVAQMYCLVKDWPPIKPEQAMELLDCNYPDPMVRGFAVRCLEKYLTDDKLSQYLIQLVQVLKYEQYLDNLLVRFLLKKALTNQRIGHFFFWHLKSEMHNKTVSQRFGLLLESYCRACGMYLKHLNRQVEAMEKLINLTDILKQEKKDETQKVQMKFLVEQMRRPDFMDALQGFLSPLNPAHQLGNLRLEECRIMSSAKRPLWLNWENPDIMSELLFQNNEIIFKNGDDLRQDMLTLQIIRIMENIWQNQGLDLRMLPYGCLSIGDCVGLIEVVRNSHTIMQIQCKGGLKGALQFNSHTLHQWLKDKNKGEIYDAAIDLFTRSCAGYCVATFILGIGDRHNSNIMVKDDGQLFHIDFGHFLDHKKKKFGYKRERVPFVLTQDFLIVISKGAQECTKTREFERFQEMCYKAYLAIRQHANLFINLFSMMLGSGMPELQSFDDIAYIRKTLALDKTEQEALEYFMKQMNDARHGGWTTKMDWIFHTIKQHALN
Sequence (P27986 2-724 partner): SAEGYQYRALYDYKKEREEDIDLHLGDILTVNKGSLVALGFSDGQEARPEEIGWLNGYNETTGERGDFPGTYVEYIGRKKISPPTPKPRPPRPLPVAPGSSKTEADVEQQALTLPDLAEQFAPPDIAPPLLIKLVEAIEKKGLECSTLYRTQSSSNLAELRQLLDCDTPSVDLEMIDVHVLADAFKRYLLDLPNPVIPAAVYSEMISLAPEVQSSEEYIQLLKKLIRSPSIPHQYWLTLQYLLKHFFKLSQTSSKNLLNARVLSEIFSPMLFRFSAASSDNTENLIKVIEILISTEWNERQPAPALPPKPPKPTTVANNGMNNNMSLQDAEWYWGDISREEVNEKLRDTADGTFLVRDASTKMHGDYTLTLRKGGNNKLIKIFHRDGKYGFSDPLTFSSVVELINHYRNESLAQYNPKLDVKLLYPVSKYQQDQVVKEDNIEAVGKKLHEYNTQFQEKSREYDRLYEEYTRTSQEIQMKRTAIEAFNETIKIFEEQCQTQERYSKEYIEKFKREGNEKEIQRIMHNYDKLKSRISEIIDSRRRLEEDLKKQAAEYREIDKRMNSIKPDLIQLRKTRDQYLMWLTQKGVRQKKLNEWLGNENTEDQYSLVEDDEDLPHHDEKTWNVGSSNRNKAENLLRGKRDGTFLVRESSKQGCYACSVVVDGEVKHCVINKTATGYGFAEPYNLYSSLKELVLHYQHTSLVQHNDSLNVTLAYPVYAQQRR
Measured IC50 by item

Consider the worked cases shown below.
Cc1cc([C@@H](C)Nc2ccc(Cl)nc2C(=O)NS(C)(=O)=O)c2nc(NCC3CC3)n(C)c(=O)c2c1 | 250 to 500 nM
Cc1cc([C@@H](C)Nc2ccc(Cl)nc2S(=O)(=O)NC(=O)C2CC2)c2nc(N3Cc4ccc(F)cc4C3)n(C)c(=O)c2c1 | 100 to 250 nM
Cc1cc([C@@H](C)Nc2ccc(Cl)nc2C(=O)NS(C)(=O)=O)c2nc(-c3cccnc3C)n(C)c(=O)c2c1 | ≥ 1000 nM

QUERY: Look up IC50 of `Cc1cc([C@@H](C)Nc2ccc(Cl)nc2C(=O)NS(C)(=O)=O)c2nc(N(C)CC3(C(F)(F)F)CC3)n(C)c(=O)c2c1` and report it.
RESULT: ≥ 1000 nM

QUERY: Quick one: give measured IC50 for `Cc1cc([C@@H](C)Nc2cc(F)cnc2C(=O)NS(C)(=O)=O)c2nc(N3Cc4ccc(F)cc4C3)n(C)c(=O)c2c1`
RESULT: ≥ 1000 nM

QUERY: Please report the measured IC50 for `Cc1cc([C@@H](C)Nc2ccc(Cl)nc2C(=O)NS(C)(=O)=O)c2nc(N3C[C@H](C)O[C@@H](C)C3)n(C)c(=O)c2c1`
RESULT: ≥ 1000 nM

QUERY: Give the reported value of IC50 for this record: `Cc1cc([C@@H](C)Nc2ccc(Cl)nc2C(=O)NS(C)(=O)=O)c2nc(-c3ccc(C)nc3)n(C)c(=O)c2c1`
RESULT: ≥ 1000 nM

QUERY: Give IC50 for `C[C@@H](Nc1cccnc1C(=O)NS(C)(=O)=O)c1cc(F)cc2c(=O)n(C)c(N3Cc4ccc(F)cc4C3)nc12`
RESULT: ≥ 1000 nM

QUERY: Note IC50 for the molecule shown: `Cc1cc([C@@H](C)Nc2ccc(Cl)nc2C(=O)NS(C)(=O)=O)c2nc(-c3cnc(C)c(F)c3)n(C)c(=O)c2c1`
RESULT: 250 to 500 nM

QUERY: For `Cc1cc([C@@H](C)Nc2ccc(Cl)nc2C(=O)NS(C)(=O)=O)c2nc(N3C[C@H]4C[C@@H]3CO4)n(C)c(=O)c2c1` , write its IC50.
RESULT: 500 to 1000 nM

QUERY: Give IC50 for the following molecule: `Cc1cc([C@@H](C)Nc2ccc(Cl)nc2C(=O)NS(C)(=O)=O)c2nc(N3Cc4cn(CC(F)(F)F)nc4C3)n(C)c(=O)c2c1`
RESULT: 100 to 250 nM

QUERY: Assign IC50 to the following record: `Cc1cc([C@@H](C)Nc2ccc(Cl)nc2C(=O)NS(C)(=O)=O)c2nc(N3CCOCC3)n(C)c(=O)c2c1`
RESULT: 500 to 1000 nM

QUERY: Respond only with IC50 recorded for `CNS(=O)(=O)NC(=O)c1nc(Cl)ccc1N[C@H](C)c1cc(C)cc2c(=O)n(C)c(N3Cc4ccc(F)cc4C3)nc12`
RESULT: 250 to 500 nM
